Origin of values: patent US20070219209A1

Where a name gives a salt, the structure may show the parent alone.
measured attribute: melting point

Lookup: Given the entry O=C1Nc2ccccc2C1CCCCN1CCN(c2ccc(F)cc2)CC1 (stereo not shown) , report its measured melting point.
Found: 113 to 115 °C

Lookup: // next record O=C1Nc2ccccc2C1CCCCN1CCN(c2ccc(Cl)c(Cl)c2)CC1 (stereo not shown)
Found: 112 to 114 °C

Lookup: // next record O=C1Nc2ccccc2C1CCCCN1CCN(c2ccc(Cl)c(C(F)(F)F)c2)CC1 (stereo not shown) (as salt: hydrochloride) [Example 15, monohydrochloride]
Found: 123 to 125 °C

Lookup: // next record O=C1Nc2ccc(F)cc2C1CCCCN1CCN(c2ccc(Cl)c(Cl)c2)CC1 (stereo not shown)
Found: 118 to 120 °C

Lookup: // next record O=C1Nc2ccccc2C1CCCCN1CCN(c2ccc(F)c(Cl)c2)CC1 (stereo not shown) (as salt: hydrochloride) [Example 14, monohydrochloride]
Found: 180 to 183 °C

Lookup: // next record O=C1Nc2ccc(F)cc2C1CCCCN1CCN(c2ccc(F)cc2)CC1 (stereo not shown)
Found: 135 to 137 °C

Lookup: // next record Cc1ccc2c(c1)C(CCCCN1CCN(c3ccc(Cl)cc3)CC1)C(=O)N2 (stereo not shown)
Found: 159 to 161 °C

Lookup: // next record Cc1ccc2c(c1)C(CCCCN1CCN(c3cccc(Cl)c3)CC1)C(=O)N2 (stereo not shown)
Found: 122 to 124 °C

Lookup: // next record O=C1Nc2ccc(F)cc2C1CCCCN1CCN(c2cccc(Cl)c2)CC1 (stereo not shown) (as salt: hydrochloride) [Example 6, monohydrochloride]
Found: 180 to 184 °C

Lookup: // next record O=C1Nc2cc(F)ccc2C1CCCCN1CCN(c2ccc(Cl)cc2)CC1 (stereo not shown) (as salt: hydrochloride) [Example 8, monohydrochloride]
Found: 149 to 151 °C
